Source listed as patent US12319684B2.

Molecular target: human apelin receptor (APJ, AGTRL-1, APLNR) (Homo sapiens, UniProt P35414)
Construct: host or cells: Chinese hamster ovary cells
Sequence (P35414 1-380): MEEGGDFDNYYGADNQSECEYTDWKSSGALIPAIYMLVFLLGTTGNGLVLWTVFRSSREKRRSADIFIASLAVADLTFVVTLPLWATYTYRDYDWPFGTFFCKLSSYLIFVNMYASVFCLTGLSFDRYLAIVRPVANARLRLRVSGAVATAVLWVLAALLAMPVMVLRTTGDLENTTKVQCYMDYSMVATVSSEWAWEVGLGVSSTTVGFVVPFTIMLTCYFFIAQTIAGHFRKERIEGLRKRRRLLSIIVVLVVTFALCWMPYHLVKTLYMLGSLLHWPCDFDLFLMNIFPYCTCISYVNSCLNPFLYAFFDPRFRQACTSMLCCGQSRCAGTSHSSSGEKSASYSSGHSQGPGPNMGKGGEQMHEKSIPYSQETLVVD
Assay: APJ cAMP cell-based assay (forskolin-stimulated CHO cells, enzyme fragment complementation)
Conditions: CHO cells expressing human APJ, forskolin-stimulated, 0.5 h incubation; 50% of control (apelin-13, 1 nM) response; read-out: APJ cAMP EC50
measure: EC50 (nM)
Write the value in nM as a bare number.

Guide cases for EC50, answers given:
COc1ccccc1-n1c(SCc2cc(=O)n3cc(C)ccc3n2)nnc1-c1sccc1C [Example 12] = 1490
COc1ccccc1-n1c(SCc2nc(=O)c3ccc(C(F)(F)F)cc3[nH]2)nnc1-c1cccs1 [Example 60] = 569
COc1ccccc1-n1c(SCc2cc(=O)n3cc(Cl)ccc3n2)nnc1-c1cccs1 [Example 50] = 6.74
COc1ccccc1-n1c(SCc2cc(=O)n3cc(C)ccc3n2)nnc1-c1ccc(Cl)s1 [Example 9] = 455

Ask: Given the compound COc1ccccc1-n1c(SCc2nc3cc(C)ccc3c(=O)[nH]2)nnc1-c1cccs1 [Example 53] , what is its reported EC50?
Result: 1030

Ask: Can you check COc1ccccc1-n1c(SCc2cc(=O)n3cc(C)ccc3n2)nnc1-c1ccc([N+](=O)[O-])cc1 [Example 7] next?
Result: 6630

Ask: Can you check COc1ccccc1-n1c(SCc2ccccc2F)nnc1-c1cccs1 [Example 74] next?
Result: 15000

Ask: Can you check COc1cccc(-n2c(SCc3cc(=O)n4cc(C)ccc4n3)nnc2-c2cccs2)c1 [Example 22] next?
Result: 1240

Ask: Can you check COc1ccccc1-n1c(SCc2csc(-c3ccccc3)n2)nnc1-c1cccs1 [Example 31] next?
Result: 635

Ask: Can you check COc1ccccc1-n1c(SCc2nc(=O)c3cccc(F)c3[nH]2)nnc1-c1cccs1 [Example 57] next?
Result: 140

Ask: Can you check COc1ccccc1-n1c(-c2cccs2)cnc1SCc1cc(=O)n2cc(C)ccc2n1 [Example 79] next?
Result: 1920

###

Target: human apelin receptor (APJ, AGTRL-1, APLNR) (Homo sapiens, UniProt P35414)
Construct: host or cells: Chinese hamster ovary cells
Sequence (P35414 1-380): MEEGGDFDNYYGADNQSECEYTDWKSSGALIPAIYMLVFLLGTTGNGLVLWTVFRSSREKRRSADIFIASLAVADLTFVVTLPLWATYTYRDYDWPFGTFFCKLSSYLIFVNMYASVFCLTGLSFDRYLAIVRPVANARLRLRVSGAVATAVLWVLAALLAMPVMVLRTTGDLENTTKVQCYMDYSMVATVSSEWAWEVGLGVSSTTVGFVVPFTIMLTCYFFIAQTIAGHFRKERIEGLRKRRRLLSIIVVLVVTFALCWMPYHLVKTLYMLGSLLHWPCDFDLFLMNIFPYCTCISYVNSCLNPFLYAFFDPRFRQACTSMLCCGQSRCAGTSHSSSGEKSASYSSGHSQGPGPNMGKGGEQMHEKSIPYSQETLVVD
Experiment: APJ cAMP cell-based assay (forskolin-stimulated CHO cells, enzyme fragment complementation)
Details: CHO, 0.5 h; percentage of the maximal apelin-13 response at 1 nM (control); read-out: APJ cAMP % resp (efficacy)
measure: Emax (%)
Write the value in % as a bare number.

Guide cases for Emax, answers given:
Cc1ccc2nc(CSc3nnc(-c4cccs4)n3-c3cccc(Cl)c3)cc(=O)n2c1 = 91
COc1ccccc1-n1c(SCc2nc(=O)c3cc(C(F)(F)F)ccc3[nH]2)nnc1-c1cccs1 = 92

Consider the additional compound presented here.
Ask: // fetch human apelin receptor (APJ, AGTRL-1, APLNR) (Homo sapiens, UniProt P35414) Emax for COc1ccccc1-n1c(SCc2csc(-c3ccc(Cl)cc3)n2)nnc1-c1cccs1
Result: 90
